Assay system: T1, ActRIIB-Fc homodimer (UniProt Q13705 20-134, limits assumed)
T1 construct: also called ActRIIB-Fc:ActRIIB-Fc homodimer; ActRIIB homodimer; not shown: linker and Fc
T1 sequence (looked up): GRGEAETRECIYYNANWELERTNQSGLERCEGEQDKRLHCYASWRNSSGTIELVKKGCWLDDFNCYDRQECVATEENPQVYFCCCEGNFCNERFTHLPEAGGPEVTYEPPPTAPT
Experimental details: SPR (Biacore), Fc protein captured by anti-Fc antibody, ligand injected
Reported property: kon (M⁻¹ s⁻¹)

[I] BMP9 (ligand, UniProt Q9UK05 320-429, looked up, also called GDF2) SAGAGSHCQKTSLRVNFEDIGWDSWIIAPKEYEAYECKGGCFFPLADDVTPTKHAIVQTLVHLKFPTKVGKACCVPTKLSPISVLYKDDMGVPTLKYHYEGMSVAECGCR
[II] GDF11 (ligand, UniProt O95390 299-407, looked up, also called BMP11) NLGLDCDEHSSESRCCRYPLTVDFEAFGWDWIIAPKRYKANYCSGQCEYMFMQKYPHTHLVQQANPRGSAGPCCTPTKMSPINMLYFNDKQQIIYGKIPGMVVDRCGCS
[III] BMP10 (ligand, UniProt O95393 317-424, looked up) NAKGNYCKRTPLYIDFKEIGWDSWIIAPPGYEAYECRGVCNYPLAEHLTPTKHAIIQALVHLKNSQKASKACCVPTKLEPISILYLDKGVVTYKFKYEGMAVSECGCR
[IV] GDF3 (ligand, UniProt Q9NR23 251-364, looked up) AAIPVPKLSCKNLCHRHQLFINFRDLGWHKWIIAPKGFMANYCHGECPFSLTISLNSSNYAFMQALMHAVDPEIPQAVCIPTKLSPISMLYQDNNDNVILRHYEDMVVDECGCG
IN: Which order do these fall in by kon? Give them lowest to highest. Please, when replying, give the labels in the order that was requested.
OUT: IV, I, III, II
